Below is a list of entries, each paired with its recorded IC50 value.
Target: human GPR17 short isoform (Homo sapiens (Human), UniProt Q13304)
Sequence (Q13304 29-367): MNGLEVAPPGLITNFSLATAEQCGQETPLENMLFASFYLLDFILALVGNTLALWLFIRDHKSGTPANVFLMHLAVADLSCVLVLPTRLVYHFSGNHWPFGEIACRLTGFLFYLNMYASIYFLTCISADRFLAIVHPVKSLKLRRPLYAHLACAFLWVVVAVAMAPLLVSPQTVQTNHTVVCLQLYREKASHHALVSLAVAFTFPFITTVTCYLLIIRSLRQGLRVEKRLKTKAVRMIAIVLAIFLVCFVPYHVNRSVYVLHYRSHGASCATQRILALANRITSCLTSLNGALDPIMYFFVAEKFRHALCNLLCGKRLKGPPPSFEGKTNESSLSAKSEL
Assay: GPR17 cAMP assay (hGPR17 cAMP, antagonist mode against EC80 of MDL29,951)
Settings: CHO-K1 cells stably expressing human GPR17 short isoform; EC80 of agonist MDL29,951; forskolin 15 μM
Source text: GPR17 cAMP Assay Protocol: […] Changes in intracellular cyclic adenosine monophosphate (cAMP) levels were quantified using the Nano-TRF Detection Assay kit (Roche Diagnostics, Cat. No. 05214386001). This assay allows for direct cAMP quantification in a homogeneous solution, cAMP is detected based on time-resolved fluorescence energy transfer (TR-FRET) and competitive binding of ruthenylated cAMP and endogenous cAMP to an anti-cAMP monoclonal antibody labeled with AlexaFluor-700. […]

1. COc1nc(NS(=O)(=O)c2c[nH]c3cc(Cl)ccc23)ncc1C1COC1 :: 2790 nM
2. COc1nc(NS(=O)(=O)c2c[nH]c3cc(Cl)ccc23)nc(CC#N)c1Br :: 623 nM
3. COc1nc(NS(=O)(=O)c2csc3nc(Br)ccc23)nc(OC)c1OC(F)F :: 138 nM

The observed IC50 for "COc1nc(NS(=O)(=O)c2c[nH]c3c(SC(F)F)c(Cl)ccc23)ncc1CCC#N" when tested with human GPR17 short isoform (Homo sapiens (Human), UniProt Q13304) stands at 14 nM

The observed IC50 for "COc1nc(NS(=O)(=O)c2c[nH]c3cc(Cl)ccc23)nc(OC(F)F)c1C" when tested with human GPR17 short isoform (Homo sapiens (Human), UniProt Q13304) stands at 40 nM

The observed IC50 for "COc1nc(NS(=O)(=O)c2c[nH]c3cc(Cl)ccc23)nc(OC)c1CCS(C)(=O)=O" when tested with human GPR17 short isoform (Homo sapiens (Human), UniProt Q13304) stands at 237 nM

The observed IC50 for "COc1nc(NS(=O)(=O)c2c[nH]c3nc(Br)ccc23)nc(OC)c1CC(F)F" when tested with human GPR17 short isoform (Homo sapiens (Human), UniProt Q13304) stands at 13 nM

The observed IC50 for "COc1nc(NS(=O)(=O)c2c[nH]c3cc(Br)ccc23)nc(OC)c1OCCF" when tested with human GPR17 short isoform (Homo sapiens (Human), UniProt Q13304) stands at 30 nM

The observed IC50 for "COc1nc(NS(=O)(=O)c2c[nH]c3cc(C(F)(F)F)ccc23)ncc1CC(F)F" when tested with human GPR17 short isoform (Homo sapiens (Human), UniProt Q13304) stands at 106 nM

The observed IC50 for "COc1nc(NS(=O)(=O)c2c[nH]c3nc(Cl)ccc23)ncc1CCC(F)F" when tested with human GPR17 short isoform (Homo sapiens (Human), UniProt Q13304) stands at 29 nM

The observed IC50 for "COc1nc(NS(=O)(=O)c2c[nH]c3cc(C(F)F)ccc23)nc(OC)c1OCC#N" when tested with human GPR17 short isoform (Homo sapiens (Human), UniProt Q13304) stands at 34 nM

The observed IC50 for "COc1nc(NS(=O)(=O)c2c[nH]c3c(C(F)F)c(Cl)ccc23)ncc1CC(F)F" when tested with human GPR17 short isoform (Homo sapiens (Human), UniProt Q13304) stands at 38 nM
